Biological target: Muscarinic acetylcholine receptor M4 (Homo sapiens)
Test: compounds altering M4/GIRK thallium flux, either direction, primary screen, M4 allosteric agonist project, cell-based, HEK293 M4/GIRK, BTC-AM (AID 625);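 note: thallium influx through GIRK channels coupled to M4 in HEK293 cells with BTC-AM dye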
Conditions: at 10 µM, actives lie on both sides
experimentalEndpoint: fluorescence slope
Could you keep your reply to the number by itself?

INSERT INTO measurements (compound, testsystem, readoutnumber) VALUES
  ('CCOCCn1c(SC)nc2c1c(=O)[nH]c(=O)n2C', 'Muscarinic acetylcholine receptor M4 (Homo sapiens)', 0.00609),
  ('Cc1nn(C)cc1/C=N/n1nnnc1N', 'Muscarinic acetylcholine receptor M4 (Homo sapiens)', 0.00512);

Give the measured fluorescence slope of CCCC1Cc2c(sc3nc(SC)nc(N)c23)CO1 (stereo not drawn) .
0.00573

Same question for CCOC(=O)c1[nH]c2ccc(F)cc2c1N=C(C)N(CC)CC please.
0.00509

Same question for O=C(NCc1ccccc1)C1C(=O)N(Cc2ccccc2)C(=O)C1C1(O)CCCC1 (stereo not drawn) please.
0.00572

Same question for Cc1ccc(NC(=O)c2cc(N3CCOCC3)nc3ccccc23)cc1 please.
0.00495

Same question for CCc1ccc(NC(=O)CSC2=C(C#N)C(c3ccc4c(c3)OCO4)CC(=O)N2)cc1 (stereo not drawn) please.
0.00667

Same question for CC1(C)CC(=O)C(C=NCCN2CCN(CCc3ccccc3)CC2)=C(O)C1 please.
0.00481

Same question for Cc1ccc(CNc2oc(COc3ccccc3Cl)nc2C#N)cc1 please.
0.00728

Same question for CCCC1C(c2ccc(OC)cc2)C(C#N)(C#N)C2(C#N)CC1(N)NC2=O (stereo not drawn) please.
0.00515

Same question for C=CCn1c(=N)c(C(=O)OCC)cc2c(=O)n3cccc(C)c3nc21 please.
0.00285

Same question for N/C(=N\S(=O)(=O)c1ccc(Cl)s1)c1ccccc1 please.
0.00465

Same question for C=C(C)Cn1c(-c2ccc(OC)cc2)nc2ccccc21 please.
0.00384

Same question for Cc1ccc(Cn2ncc3c(N4CCN(Cc5ccc(Cl)cc5)CC4)ncnc32)cc1 please.
0.00938

Same question for COc1nnnc2c1sc1nc(N3CCOCC3)c3c(c12)CC(C)(C)OC3 please.
0.00514

Same question for Cc1ccc(-n2c(SCC(=O)NCc3ccco3)nc3nc4c(cc3c2=O)COC(C)(C)C4)cc1 please.
0.00603

Same question for COc1ccc(Nc2nnc(C)c3ccccc23)cc1C(N)=O please.
0.00456

Same question for O=C(O)C1CC(=O)N(Cc2cccs2)C1 (stereo not drawn) please.
0.00636

Same question for COc1cccc(C(=O)OC2CCCN(C)C2)c1 (stereo not drawn) please.
0.00427

---

Experiment: inhibitors of poly I:C-induced TLR3 signaling, primary screen, cell-based, poly I:C stimulus, luciferase, 10K MLSCN set (AID 602277)
Details: HEK293-TLR3 RL24 IRF3 luciferase reporter, at 10 µM, stronger effect = higher value
Where a SMILES comes first, the peptide text is derived from it. The star is where a group is joined. Boc = CC(C)(C)OC(=O)*
Items are presented alongside their recorded inhibition.
Write the number in % without appending the unit.

The examples below pair each entry with its known result.
INSERT INTO measurements (molecule, experimentalendpoint, readoutnumber) VALUES
  ('CN(C)CCN1C(=O)c2oc3ccc(Cl)cc3c(=O)c2C1c1cccc(Br)c1 (stereo not given)', 'inhibition', 49.7),
  ('Cn1cc(C2NC(=O)c3c(sc4c3CCCC4)N2)c2ccccc21 (stereo not given)', 'inhibition', 21.2),
  ('Cc1cc2n(n1)C(c1ccccc1)Nc1ccccc1-2 (stereo not given)', 'inhibition', -26.7);

Give the measured inhibition of COc1ccccc1-n1c(C)nnc1SCC(=O)Nc1cccc(C(C)=O)c1 .
13.3

Same question for CCC(C)(C)NC(=O)CN(Cc1ccc2c(c1)OCO2)C(=O)CCC(=O)Nc1ccccn1 please.
21.6

Same question for Cc1cccc(NC(=O)c2cc(NC(=O)c3ccco3)ccc2Cl)n1 please.
-7.38

Same question for CCc1nnc(NC(=O)C2CCCN2S(=O)(=O)c2ccc(C)cc2)s1 (stereo not given) please.
15.9

Same question for COc1ccc(CNc2nc(NCc3ccc(OC)cc3)n(S(C)(=O)=O)n2)cc1 please.
-1.73

Same question for CCOC(=O)N1CCN(c2c(NCCCOC(C)C)c(=O)c2=O)CC1 please.
16

Same question for CCC(C)C(NC(=O)OC(C)(C)C)C(=O)NC(CC(C)C)C(N)=O (stereo not drawn) (Boc-Ile-Leu-NH2; configuration not given here) please.
10.9
